// provenance: PubChem BioAssay (NCI)

Assay: NCI Yeast Anticancer Drug Screen. Data for the rad50 strain (AID 155);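 also: 0% = growth of vehicle-only cultures of the same strain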
Conditions: S. cerevisiae rad50 strain growth inhibition; at 50.0 µM (retest, dose inferred, filed as 5.0); stronger effect = higher value
Protocol: Growth inhibition of yeast strains with defined genetic alterations is measured as a screen for potential anti-cancer activity. Selected strains with alterations in DNA damage repair or cell cycle control were exposed to compounds and growth inhibition was measured relative to vehicle treated controls. The strain used in this assay is rad50
The panel holds about 79,000 compounds, 15% with a hit somewhere; the sample as a whole holds those more often.

COMPOUND | UNIT_TEXT | growth inhibition
CCNC(=S)NNC(=S)NNc1ccccc1 | % | 98
O=C(Nc1ccccc1)c1cc(Cl)ccc1O | % | 33
CCCCCCC(C)c1ccccc1O (centres undefined) (tested in a mixture with another compound) | % | 96
COC(=O)c1cc(OC)c(OC)c(OC)c1 | % | 72
CNc1ccc(N)cc1 | % | -9
CCCCCCCCCCCCCCCCCC(=O)OCC(COC(=O)CCCN)OC(=O)CCCN (centres undefined) | % | 99
CCOCCC(=O)NNc1ccccc1 | % | 43
O=c1ccccc(Br)c1O | % | 97
O=[N+]([O-])c1cc(Cl)c(Cl)cc1NS(=O)(=O)c1ccccc1 | % | 45
COC(=O)C12CCC(=O)C(C)=C1CCC(OC)(OC)C2 (centres undefined) | % | 4
O=C1N[C@H]2[C@H](CS[C@H]2CCCCC(=O)N(CCP(c2ccccc2)c2ccccc2)CCP(c2ccccc2)c2ccccc2)N1 | % | 41
CC#CS(=O)(=O)c1ccccc1 | % | 40
CC[n+]1c(/C=C/c2cc(C(=O)OC)n3c2sc2ccccc23)sc2ccccc21 | % | 99
Cc1ccc2c(ccc3c[n+]4c5ccccc5ccc4n32)c1 | % | 99
Clc1ccc(N=Cc2c3ccccc3cc3ccccc23)c(Cl)c1 | % | -3
CCOP(=O)(CCCOc1cc(Cl)c(Cl)cc1Cl)OCC | % | 99
c1cc(NC2CCCCC2)ccc1CN1CCOCC1 | % | 90
CN(C)c1ccc(/C=N/N=C(\C#N)[S][Sn]([Cl])([c]2ccccc2)[c]2ccccc2)cc1 | % | 95
O=C(O)/C(=C\c1ccc(F)cc1)c1ccccc1 | % | -12
S=C(NC(=S)Nc1ccc(Cl)cc1)Nc1ccc(Cl)cc1 | % | -4
O=C1NC(=O)N(c2ccc([N+](=O)[O-])cc2)C1=O | % | 3
O=C(CC1(O)C(=O)Nc2c(Cl)cc(Cl)cc21)c1ccc(Br)cc1 (centres undefined) | % | 3
N=C(N)c1ccc(Nc2ccc(-c3cc4ccc(C(=N)N)cc4[nH]3)cc2)cc1 | % | 98
O=S(O)CCCCCSSc1ccccc1 | % | 12
